Would you mind telling me the reported %Inh of each entry?
Tested on: FGFR3
conditionsUsed: concentration: 1 μM, replicates: in singlicate; n = 1;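 further: KINOMEscan kinase panel screen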
Answers are plain numbers, in %.

Example entries and their recorded answers appear below.
{"columns": ["molecule", "%Inh [%]"],
 "data": [
  ["COc1cc(Nc2nccc(N3CCC(NC(=O)C(C)c4ccc(Cl)cc4)C3)n2)cc(OC)c1OC (stereo not drawn)", 2],
  ["COC(=O)c1c(-c2ccccc2)c2cc(C)ccc2c(=O)n1Cc1ccccc1", 0]
]}

Quick batch: %Inh for everything below.
1. COc1cc2ncn(-c3cc(OCCCc4ccccc4)c(C(N)=O)s3)c2cc1OC
2. Nc1ncnc2c1ncn2-c1cccc2ccccc12

### Response
16
0

Quick batch: %Inh for everything below.
1. CCS(=O)(=O)c1ccc(OC)c(Nc2ncc(-c3ccc(F)cc3)o2)c1.Cl
2. CCC(=O)c1c(-c2ccccc2)c2cc(Cl)ccc2c(=O)n1Cc1cc(S(C)(=O)=O)n(CC(F)F)n1
3. COc1ccc(Nc2nccc(N3CCC(NS(=O)(=O)c4ccc(NC(C)=O)cc4)C3)n2)cc1 (stereo not drawn)
4. Cc1ccc(Oc2ccc(Nc3ncnc4cc[nH]c34)cc2C)cn1

### Response
[0, 0, 18, 4]

### Prompt Need %Inh, item FC(F)(F)c1ccc(-c2ncn(CCCN3CCOCC3)c2-c2ccncc2)cc1
### Response 6

====

System: PDPK1
conditionsUsed: concentration: 1 μM, replicates: in singlicate; n = 1
Would you mind telling me the reported %Inh of each entry?
One number for each entry, in %.

Example entries and their recorded answers appear below.
{"columns": ["smilesStructure", "%Inh, %"],
 "data": [
  ["CCCNC(=O)Nc1ccc(Oc2ncnc3ccn(C)c23)cc1", 0],
  ["CCS(=O)(=O)c1ccc(OC)c(Nc2ncc(-c3ccc(F)cc3)o2)c1.Cl", 0]
]}

### Prompt Need %Inh, item Cc1cccc(-c2cc(-c3c[nH]nc3-c3ccccn3)ccn2)c1
### Response 0

====

System: MKNK2
conditionsUsed: concentration: 1 μM, replicates: in singlicate; n = 1
readout: %Inh (%)
Give bare numbers, in %.

Example entries and their recorded answers appear below.
{"columns": ["compound", "scaleUnit", "%Inh"],
 "data": [
  ["CCCNC(=O)Nc1ccc(Oc2ncnc3ccn(C)c23)cc1", "%", 0],
  ["FC(F)(F)c1ccc(-c2ncn(CCCN3CCOCC3)c2-c2ccncc2)cc1", "%", 58],
  ["COC(=O)c1c(-c2ccccc2)c2cc(C)ccc2c(=O)n1Cc1ccccc1", "%", 0],
  ["Cc1nnc(-c2ccc3ncn(-c4ccc(S(C)=O)cc4)c3c2)o1 (stereo not drawn)", "%", 20]
]}

Quick batch: %Inh for everything below.
1. Cl.c1ccc(Cn2cnc3cc(Nc4ncnc5ccccc45)ccc32)cc1
2. Cc1cc(Nc2nc(-c3cccc(C)n3)nc3ccccc23)ccn1

### Response
6
0

Quick batch: %Inh for everything below.
1. Cc1cccc(-c2cc(-c3c[nH]nc3-c3ccccn3)ccn2)c1
2. COc1ccc(-c2cc3c(C)nc(N)nc3n([C@H]3CC[C@H](O)CC3)c2=O)cn1
3. Cc1ccc(-c2ccc3c(ccc4sc5c(c43)NC[C@@H](C)N=C5N(C)C)n2)cn1

### Response
1: 2; 2: 0; 3: 0
